The reported measurements were obtained from PubChem BioAssay (EPA / NIEHS).

Read-out: Urokinase-type plasminogen activator receptor (uPAR), PLAUR (gene 5329)
Assay Text: BSK_CASM3C_uPAR: BioMAP Diversity Plus: CASM3C Assay for Urokinase-type plasminogen activator receptor (uPAR) Biomarker Activity (AID 2283054);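 note: cell-surface uPAR protein level quantified by ELISA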
Experimental Conditions: primary human coronary artery smooth muscle cells; actives raise or lower the signal
Active and inactive are the calls of the source. Rule for the calls: active = hit-call score of the fitted dose curve at least 0.9, where 1 is the maximum; inactive = score below 0.9.
// one of active, inactive, no free text

Completed entries (count: 4):
[[record]]
compound = "CC(Oc1cccc(Cl)c1)C(=O)O (configuration not stated)"
category = "inactive"

[[record]]
compound = "CCc1cnc(C2=NC(C)(C(C)C)C(=O)N2)c(C(=O)O)c1 (configuration not stated)"
category = "inactive"

[[record]]
compound = "CCOP(=O)(NC(C)C)Oc1ccc(SC)c(C)c1 (configuration not stated)"
category = "inactive"

[[record]]
compound = "CN(C)C(=O)Nc1cccc(C(F)(F)F)c1"
category = "inactive"


Lookup: Which result was noted for this compound in the test: COc1cccc(C(=O)NN(C(=O)c2cc(C)cc(C)c2)C(C)(C)C)c1C
Found: inactive

Lookup: Which result was noted for this compound in the test: CCC(CC)Nc1c([N+](=O)[O-])cc(C)c(C)c1[N+](=O)[O-]
Found: inactive

Lookup: Which result was noted for this compound in the test: COP(=O)(OC)C(O)C(Cl)(Cl)Cl (configuration not stated)
Found: inactive

Lookup: Which result was noted for this compound in the test: CCCCSP(=O)(SCCCC)SCCCC
Found: inactive
